The origin of these recorded values is PubChem BioAssay (NCI).

Tested on: SK-MEL-28 melanoma
test: NCI-60 one-dose screen, 48 h
conditionDetails: 10 µM unless noted
Protocol: Growth inhibition of the SK-MEL-28 human tumor cell line is measured as a screen for anti-cancer activity. Cells are grown in 96 well plates and exposed to the test compound for 48 hours. Compounds are tested at a single concentration, which is 10^-5 M for most compounds. The reported endpoint is percent growth (GI% or GIPRCNT), where numbers from 0 - 100% represent growth inhibition, and numbers from -100% - 0 represent cell death. For example, a value of 40 represents 60% growth inhibition. […]
About 83,000 compounds went through this panel and 20% of them were active in at least one assay; those are over-represented in the sample as a whole. The source made the active and inactive calls. The calls were made as follows: active = growth percent below 10; inactive = the rest.
Labels: active, inactive

- compound: "COC(=O)c1cc(C(=O)C(C)(C)C)n2c3ccccc3c3ccccc3c12"
  systemName: "SK-MEL-28 melanoma"
  classification: "inactive"
- compound: "CN1C(=O)C(O)(CC(=O)c2cc3ccccc3oc2=O)c2ccccc21 (stereo not given)"
  systemName: "SK-MEL-28 melanoma"
  classification: "inactive"
- compound: "COC(=O)c1cc(C(=O)C(Br)Br)n2c1ccc1c3ccccc3ccc12"
  systemName: "SK-MEL-28 melanoma"
  classification: "inactive"
- compound: "CCN(C(=O)CN1C(=O)/C(=C/c2ccco2)SC1=S)C1CCS(=O)(=O)C1 (stereo not given)"
  systemName: "SK-MEL-28 melanoma"
  classification: "inactive"
- compound: "Fc1ccc(N2CC(Cn3c(C(F)(F)F)cc4c(Cl)ncnc43)C2)c(F)c1"
  systemName: "SK-MEL-28 melanoma"
  classification: "active"
- compound: "C=CC(=O)N1CCN(c2ccc3nc4c(nc3c2C(F)(F)F)C(=O)c2ncccc2C4=O)CC1"
  systemName: "SK-MEL-28 melanoma"
  classification: "inactive"
- compound: "CN1CCc2c(sc3ncnc(N/N=C/c4cccc(Cl)c4Cl)c23)C1"
  systemName: "SK-MEL-28 melanoma"
  classification: "inactive"
- compound: "CN1C(=O)/C(=C\\C(=O)c2cc3ccccc3oc2=O)c2ccccc21"
  systemName: "SK-MEL-28 melanoma"
  classification: "inactive"
- compound: "CCCCNC(=S)Nc1ccc(OCc2nc3ccc(Cl)cc3[nH]2)cc1"
  systemName: "SK-MEL-28 melanoma"
  classification: "inactive"
- compound: "COc1ccc2[nH]c(O)c(N=Nc3nc(-c4ccc(C#N)cc4)cs3)c2c1"
  systemName: "SK-MEL-28 melanoma"
  classification: "inactive"

====

Test system: HOP-62 NSCLC
test: NCI-60 one-dose screen, 48 h (100 = growth as untreated, 0 = no growth, -100 = all killed)
conditionDetails: 10 µM unless noted
Compounds without any hit were thinned out: in the full panel of roughly 83,000, 20% have a hit. Active and inactive are the calls of the source. Rule for the calls: active = growth percent below 10; inactive = the rest.

- compound: "COc1cc(CNC(=O)C[C@H](C)CCC=C(C)C)ccc1OCc1cn(-c2ccc(Br)cc2)nn1"
  growth: "65.1% (inactive)"
- compound: "COc1ccc(N=Nc2c(N)nn3c(-c4ccc5c(c4)C=S=C5)ccnc23)cc1"
  growth: "42.5% (inactive)"
- compound: "O=C(Nc1ccc(-c2ccc3c(c2)NC(=O)/C3=C\\c2ccc[nH]2)cc1)Nc1cccc(Cl)c1"
  growth: "-29.6% (active)"
- compound: "COc1cc(/C=C/C(=O)c2ccc(S(=O)(=O)NCCNc3nc(N(C)C)nc(N4CCOCC4)n3)cc2)cc(OC)c1OC"
  growth: "-19.1% (active)"
- compound: "Cc1cc(=O)oc2cc(OCC(O)CNN3C(=O)c4cccc5c(N6CCN(C)CC6)ccc(c45)C3=O)ccc12 (centres undefined)"
  growth: "99.8% (inactive)"
- compound: "Clc1ccccc1Nc1nnc(-c2c[nH]c3ccccc23)o1"
  growth: "27.2% (inactive)"
- compound: "CC1=C(C(=O)OCc2ccccc2)C(c2cccc3ccccc23)n2c(nc3ccccc32)N1 (centres undefined)"
  growth: "38.3% (inactive)"
- compound: "Cc1oc(-c2ccccc2)nc1CN[C@@H]1C[C@@H]2C[C@H]([C@H]1C)C2(C)C"
  growth: "75% (inactive)"
- compound: "O=C(N/N=C/c1ccc(Cl)o1)c1[nH]c2ccc(Br)cc2c1-c1ccccc1"
  growth: "-48.3% (active)"
- compound: "N#CC1=C(c2cccs2)Nc2c(c(-c3ccccc3)nn2-c2ccccc2)C12C(=O)Nc1ccccc12 (centres undefined)"
  growth: "-20% (active)"
- compound: "FC(F)(F)c1cc2c(Cl)ncnc2n1CCN1CCCCC1"
  growth: "76.3% (inactive)"
- compound: "COc1c(B(O)O)cc(F)cc1-c1nc2ccc3[nH]ncc3c2c2c1COCC2"
  growth: "49.5% (inactive)"
- compound: "COc1sc(/C=N/NC(=O)c2[nH]c3ccc(Br)cc3c2-c2ccccc2)cc1Cl"
  growth: "-27% (active)"
- compound: "Cc1nc2sccn2c1-c1nnc(SCC(C)C)o1"
  growth: "95.2% (inactive)"
- compound: "COC(=O)c1cc(C(=O)CBr)n2c1ccc1c3ccccc3ccc12"
  growth: "48.9% (inactive)"
- compound: "O=C(N/N=C/c1ccc(Br)o1)c1[nH]c2ccc(Br)cc2c1-c1ccccc1"
  growth: "-28.6% (active)"
- compound: "O=CNc1ccc(-n2cnc3cc(-c4ccc(O)cc4)ccc32)cc1"
  growth: "85.6% (inactive)"
- compound: "Cc1cnc2ccc(Oc3ccccc3-c3ccccc3)nn12"
  growth: "124% (inactive)"
- compound: "CC(C)C[C@H](NC(=O)[C@@H]1CCCCCCCCCCC(=O)N[C@@H](CC(=O)N2CCC[C@@H]2C2CCCC2)C(=O)N1)B(O)O"
  growth: "-14.7% (active)"
- compound: "O=C(Nc1ccc(Br)cc1)Nc1ccc(-c2ccc3c(c2)NC(=O)/C3=C\\c2ccc[nH]2)cc1"
  growth: "53.1% (inactive)"
- compound: "O=C(Cn1c(-c2ccccc2)nc2ccccc21)N=Nc1c(O)[nH]c2ccc(Br)cc12"
  growth: "-68.1% (active)"
- compound: "CC(=O)c1ccc2c(N)c(C(=O)Nc3ccc(C(F)(F)F)cc3)sc2n1"
  growth: "58.6% (inactive)"
- compound: "Cc1ccc(C(=O)C[n+]2cccc3c4ccccc4ccc32)cc1"
  growth: "36.1% (inactive)"
- compound: "CC(C)(C)C(=O)C1CC(C#N)=C2C=Cc3c(ccc4ccccc34)N21 (centres undefined)"
  growth: "88.3% (inactive)"
- compound: "CCc1ccccc1NC(=O)N/C(N)=N/c1nc2ccccc2s1"
  growth: "-14.9% (active)"
- compound: "O=C(O)CC1S/C(=N/N=C/c2nc3ccccc3s2)NC1=O (centres undefined)"
  growth: "108% (inactive)"
- compound: "O=C(Nc1nc2ccccc2s1)Nc1ccccc1Cl"
  growth: "12.2% (inactive)"
- compound: "COc1ccccc1/C=C/c1cccc(NC(=S)NCCCCN(C)C)c1"
  growth: "-51.1% (active)"
- compound: "O=C(N/N=C/c1ccc(-c2cccc([N+](=O)[O-])c2)s1)c1[nH]c2ccc(Br)cc2c1-c1ccccc1"
  growth: "64.4% (inactive)"
- compound: "O=C(Nc1ccc(S(=O)(=O)N2CCCCC2)cc1)C(Cl)Cl"
  growth: "108% (inactive)"
- compound: "COc1ccc(-c2cc(-c3cc(C(C)C)c(O)cc3C)nn2-c2ccc(S(N)(=O)=O)cc2)cc1"
  growth: "51.5% (inactive)"
- compound: "Cn1cc(-c2cc(N)n3nc(-c4c[nH]c5ccccc45)cc3n2)c2ccccc21"
  growth: "-85.4% (active)"
- compound: "O=S(=O)(c1nc(-c2ccc(Br)cc2)oc1-c1ccc(Cl)cc1)N1CCCC(O)C1 (centres undefined)"
  growth: "102% (inactive)"
- compound: "Cc1cc(C)c2[nH]c(=O)c(C(c3nnnn3Cc3ccc4c(c3)OCO4)N3CCN(C)CC3)cc2c1 (centres undefined)"
  growth: "111% (inactive)"
- compound: "CC(C)(C)OC(=O)N1C/C(=C\\c2ccc(F)cc2)C(=O)/C(=C/c2ccc(F)cc2)C1"
  growth: "14.6% (inactive)"
- compound: "N#CC1=C(c2cccs2)Nc2c(c(-c3ccccc3)nn2-c2ccccc2)C12C(=O)Nc1ccc(Br)cc12 (centres undefined)"
  growth: "-75.2% (active)"
- compound: "Cc1cccc(C)c1Nc1nnc(-c2c[nH]c3ccccc23)o1"
  growth: "83.1% (inactive)"
- compound: "C/C(=N/O)c1ccc(NC(=O)CSc2nnc(-c3ccc4nc(-c5ccc(Cl)cc5)[nH]c4c3)o2)cc1"
  growth: "20.2% (inactive)"
- compound: "CN(C)c1ccc(/C=C/c2n(Cc3ccc4ccccc4c3)c3ccccc3[n+]2Cc2ccc3ccccc3c2)cc1"
  growth: "-63.3% (active)"

====

Test system: RPMI-8226 leukemia
test: NCI-60 one-dose screen, 48 h
conditionDetails: 10 µM unless noted
Compounds without any hit were thinned out: in the full panel of roughly 83,000, 20% have a hit. Active and inactive are the calls of the source. Rule for the calls: active = growth percent below 10; inactive = the rest.
Labels: Y = active, N = inactive

- molecule: "COc1cc2cc(C(=O)N3C[C@@H](CCl)c4c3cc(OC(=O)N(CCC(=O)N3CCN(C)CC3)[C@H]3CCSSC3)c3ccccc43)[nH]c2c(OC)c1OC"
  classification: "Y"
- molecule: "CCCCN1C(=O)/C(=C\\C(=O)c2cc3ccccc3oc2=O)c2ccccc21"
  classification: "N"
- molecule: "Cn1cc(-c2cc(N)n3nc(-c4c[nH]c5ccccc45)cc3n2)c2ccccc21"
  classification: "Y"
- molecule: "O=CNc1ccc(-n2cnc3cc(-c4ccc(O)cc4)ccc32)cc1"
  classification: "N"
- molecule: "N#Cc1c(NC(=O)N2CCOCC2)n(-c2ccc(OC(F)(F)F)cc2)c2cc(F)ccc12"
  classification: "N"
- molecule: "O=C(N/N=C/c1ccsc1)c1[nH]c2ccc(Br)cc2c1-c1ccccc1"
  classification: "Y"
- molecule: "Cc1ccc(Cl)cc1NC(=O)N/C(N)=N/c1nc2ccccc2s1"
  classification: "Y"
- molecule: "C/C(=N\\Nc1ccc(S(N)(=O)=O)cc1)c1cnn(-c2cc(=O)[nH]c3ccc(Br)cc23)c1C"
  classification: "N"
- molecule: "CCCn1c(NC(=O)c2cccc(C(N)=O)c2)nc2cc(CN3CCCCC3)ccc21"
  classification: "N"
- molecule: "COc1cc2cc(C(=O)N3C[C@@H](CCl)c4c3cc(OC(=O)N(C)CCSSCCN3CCOCC3)c3ccccc43)[nH]c2c(OC)c1OC"
  classification: "Y"
- molecule: "CC(C)C[C@H](NC(=O)[C@@H]1CCCCCCCCCCC(=O)N[C@@H](CC(=O)N2CCC[C@@H]2C2CCCC2)C(=O)N1)B(O)O"
  classification: "N"
- molecule: "Cc1cc(=O)oc2cc(OCC(O)CNN3C(=O)c4cccc5c(N6CCN(C)CC6)ccc(c45)C3=O)ccc12 (stereo not drawn)"
  classification: "N"
- molecule: "CCOC(=O)/C(F)=C/C1CC1C1CCN(C(=O)OC(C)(C)C)CC1 (stereo not drawn)"
  classification: "N"
- molecule: "C=CC[n+]1cccc2c3ccccc3ccc21"
  classification: "N"
- molecule: "Nc1cc2ccccc2c(=O)n1NC(=O)c1ccc(Br)cc1"
  classification: "N"
- molecule: "COc1ccc(/C=C/c2nc3ccccc3n3c(-c4cccc([N+](=O)[O-])c4)nnc23)cc1"
  classification: "Y"
- molecule: "CCCCCCCCCc1ccc(C(=O)Nc2cc(C)ccc2C(=O)OC)cc1"
  classification: "N"
- molecule: "Cc1ccc(C2CC(c3ccc(NC(=S)Nc4ccccc4)cc3)=NN2c2ccc(S(N)(=O)=O)cc2)cc1 (stereo not drawn)"
  classification: "Y"
- molecule: "Cn1cc(-c2cc3nc(-c4c[nH]c5ccccc45)cc(N)n3n2)c2ccccc21"
  classification: "Y"
- molecule: "CC1=NN(C2=NC(=O)C(CC(=O)Nc3ccccc3C(F)(F)F)S2)C(c2ccc(N(C)C)cc2)C1 (stereo not drawn)"
  classification: "N"
- molecule: "COc1ccccc1/C=C/c1cccc(NC(=S)NCCCCN(C)C)c1"
  classification: "Y"
- molecule: "COc1ccccc1Nc1nnc(-c2c[nH]c3ccccc23)o1"
  classification: "Y"
- molecule: "CC1=C(C)C(=O)C(N2CCSCC2)=CC1=O"
  classification: "N"
- molecule: "Cc1cccc(/C=C/c2ccc(NC(=S)NCCCCN(C)C)cc2)c1"
  classification: "Y"
- molecule: "O=C(NNC(=S)NC(=O)c1ccccc1)c1ccc(OCc2nc3ccc(Cl)cc3[nH]2)cc1"
  classification: "Y"
- molecule: "Cc1cccc(C)c1Nc1nnc(-c2c[nH]c3ccccc23)o1"
  classification: "N"
- molecule: "COc1cc(CNC(=O)C[C@H](C)CCC=C(C)C)ccc1OCc1cn(-c2ccccc2Cl)nn1"
  classification: "N"
- molecule: "Nc1cc(-c2c[nH]c3ccc(F)cc23)nc2cc(-c3c[nH]c4ccccc34)nn12"
  classification: "Y"
- molecule: "COc1ccc(NC(=O)CSc2nnc(-c3ccc(-c4nc5ccccc5[nH]4)cc3)o2)cc1"
  classification: "N"
- molecule: "O=C1CCC(N2C(=O)c3cccc(NCCOCCOCCOCCC(=O)NCCCC(=O)NC(c4ccc5c(c4)OCO5)c4cc(Cl)c5cccnc5c4O)c3C2=O)C(=O)C1 (stereo not drawn)"
  classification: "N"
- molecule: "CCCCC[C@@H]1C/C=C(\\C)[C@@H](O)C(C)(C)C(=O)[C@@H](C)/C=C(\\C)[C@@H]2C[C@H](O)C[C@](O)(CC(=O)O1)O2"
  classification: "Y"
- molecule: "O=C(c1cc2cc(OCCCN3CCC3)ccc2[nH]1)N1C[C@@H](CCl)c2c1cc(OCc1ccccc1)c1ccccc21"
  classification: "Y"
- molecule: "CN(C)c1ccc(/C=C/c2n(Cc3ccc4ccccc4c3)c3ccccc3[n+]2Cc2ccc3ccccc3c2)cc1"
  classification: "Y"
- molecule: "Cn1cc(-c2cc3nc(-c4cn(C)c5ncc(Br)cc45)cc(N)n3n2)c2cc(F)ccc21"
  classification: "N"
- molecule: "CN(C)CCCc1ccc(Nc2cnn(C)c(=O)c2Cl)cc1"
  classification: "N"
- molecule: "CCCSc1nnc(-c2sc3nc4ccccc4n3c2C)o1"
  classification: "N"
- molecule: "O=C(/C=C1\\C(=O)N(Cc2ccccc2)c2ccccc21)c1cc2ccccc2oc1=O"
  classification: "N"
- molecule: "COc1cccc(-c2ccc(/C=N/NC(=O)c3[nH]c4ccc(Br)cc4c3-c3ccccc3)s2)c1"
  classification: "Y"
